This collection of values is drawn from ChEMBL document CHEMBL1201862.

# Test system: HOP-18
# Assay Protocol: NCI tumour cell line growth inhibition, 48 h
Activity calls are given as the source filed them. Cut-off read from the data, not from the text of the source: active = GI50 up to about 1.1 µM and inactive = higher.
# valid calls are 1 = active, -1 = inactive; nothing else

Incoming: Test call for this compound, please: COc1ccc(CCc2cc(OC)cc(OC)c2)cc1
Outgoing: -1

Incoming: Follow-up entry: CCN(CC)CCCCC1CCN(CC(=O)N2c3ccccc3NC(=O)CC2C)CC1 (configuration not stated)
Outgoing: -1

Incoming: Follow-up entry: S=c1sc2c(S)nc(S)nc2n1-c1ccccc1
Outgoing: -1

Incoming: Follow-up entry: CN(C)CCSc1nccc(-c2ccc(-c3ccnc(SCCN(C)C)n3)s2)n1
Outgoing: -1

Incoming: Follow-up entry: Cc1nc(C)c(C(=O)Nc2cccc3c2C(=O)NC3=O)cc1C(=O)Nc1cccc2c1C(=O)NC2=O
Outgoing: -1

Incoming: Follow-up entry: O=C1C2C3C=C4c5ccccc5N(c5ccccc5)C4(C2C(=O)N1c1ccc(Br)cc1)[C@H]1C(=O)N(c2ccc(Br)cc2)C(=O)[C@@H]31 (some centres not stated)
Outgoing: -1

Incoming: Follow-up entry: Cc1c(C)c2cc3c(=O)ccoc3c(C)c2oc1=O
Outgoing: -1

Incoming: Follow-up entry: O=C(Nc1c(O)[nH]c(=S)[nH]c1=O)c1ccccc1F
Outgoing: -1

Incoming: Follow-up entry: CN(C)CCC(=O)/C=C\c1ccccc1
Outgoing: -1

Incoming: Follow-up entry: Cc1cc(C)c(C(=O)/C(=C/c2ccccc2)c2ccccc2)c(C)c1
Outgoing: -1

Incoming: Follow-up entry: Cn1c2c(c3ccccc31)CCN(CCCCN1CCCCC1)C2=O
Outgoing: -1

Incoming: Follow-up entry: Cc1nc2sccn2c1C(=O)N/N=C1\SCC(=O)N1C
Outgoing: -1

Incoming: Follow-up entry: CCc1ccc(/C=C\c2cc(OC)c(OC)c(OC)c2)cc1
Outgoing: 1

Incoming: Follow-up entry: CCCC/C=C1\CCC(C)(CN(C)C)C1=O (configuration not stated)
Outgoing: -1

Incoming: Follow-up entry: CCCCCCCCCCCCCCCCOC(=O)c1cc(O)cc(C(=O)OCCCCCCCCCCCCCCCC)c1
Outgoing: -1

Incoming: Follow-up entry: C[C@]12CC[C@H](OC(=O)Cc3ccc(N(CCCl)CCCl)cc3)CC1CC[C@@H]1C2CC[C@]2(C)NC(=O)CCC12 (some centres not stated)
Outgoing: -1

Incoming: Follow-up entry: CCCc1nc(NC#N)nc(C(=O)Nc2ccccc2)c1CC
Outgoing: -1
